Cited source: patent US6177557

Molecular target: thrombin (alpha) (human, UniProt P00734;P00734 P00734:328-363,P00734:364-622)
Experiment: filter; 100 mM NaCl, 50 mM Tris pH 7.7, 1 mM DTT, 1 mM MgCl2, 37 C
pKd: −log10 of the molar value.
parameter_measured: pKd

[[record]]
binder = "thrombin Class II RNA 27 (ssRNA) RNA: AGAUGCCUGUCGAGCAUGCUGGUGCGGCUUUGGGCGCCGUGCUUGACGUAGCUAAACAGCUUUGUCGACGGG"
value_measured = "~7.22"

[[record]]
binder = "thrombin Class I RNA 16 (ssRNA) RNA: AGAUGCCUGUCGAGCAUGCUGCAUCCGGAUCGAAGUUAGUAGGCCGAGGUGGUAGCUAAACAGCUUUGUCGACGGG"
value_measured = "~7.52"

